testSummary: Bioavailability assay, plasma drug concentration after intraperitoneal injection
Format: in vivo
measurementParameters: mouse, plasma, ip; mice, single dose 25 mg/kg intraperitoneal, 120 minutes post injection
parameterMeasured: concentration at 120 min

concentration at 120 min reported for this molecule `NS(=O)(=O)c1ccc(NN=Cc2ccc(Br)cc2)cc1` : 38000 ng/mL

====

testSummary: Bioavailability assay, plasma drug concentration after intraperitoneal injection
Assay type: in vivo
measurementParameters: mouse, plasma, ip; mice, single dose 50 mg/kg intraperitoneal, 120 minutes post injection
parameterMeasured: concentration at 120 min (µg/mL)
Give the value, in units of µg/mL, as a plain number.

concentration at 120 min reported for this compound `NS(=O)(=O)c1ccc(NN=Cc2ccc(Br)cc2)cc1` : 165

Reference for the values: patent US20030187035A1
